Recorded values, source the MegaScale stability set (Tsuboyama et al. 2023).

Reported folding stability dG values for a set of variants
B1: HEEH_KT_rd6_3546 (parent)
chain: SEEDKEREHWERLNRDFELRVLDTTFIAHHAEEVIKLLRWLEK

# Variants of: B1
# Experimental Protocol: folding stability dG (cDNA display proteolysis); higher = more stable
# Cond: PBS, room temperature
Record the value in kcal/mol, omitting the unit from your answer.

Below: 3 variants and their reported folding stability dG.
{"Residue Change": "E8Y", "Quantity Kind": "folding stability dG", "Unit Info": "kcal/mol", "Recorded Number": 1.28}
{"Residue Change": "K5Q", "Quantity Kind": "folding stability dG", "Unit Info": "kcal/mol", "Recorded Number": 1.11}
{"Residue Change": "W10N", "Quantity Kind": "folding stability dG", "Unit Info": "kcal/mol", "Recorded Number": 1.15}

Supply reported folding stability dG belonging to this variant: L38Y 0.971

Supply reported folding stability dG belonging to this variant: L38Q 0.257

Supply reported folding stability dG belonging to this variant: R15M 1.75

Supply reported folding stability dG belonging to this variant: K36W 1.87

Supply reported folding stability dG belonging to this variant: L19H 0.971

Supply reported folding stability dG belonging to this variant: E2N 1.38

Supply reported folding stability dG belonging to this variant: D16W 2.27

Supply reported folding stability dG belonging to this variant: F26I 0.875
